Hey, just so you know, these numbers are from the supplement of paper PMC8253809.

Can you tell me growth inhibition for the items I'm about to list?
System: HGGX39 (paediatric high-grade glioma line)
TEST NAME: growth inhibition (% activity, log2 RLU normalised to DMSO / staurosporine); higher = more growth inhibition
RECORDED CONDITIONS: 33 µM
Give bare numbers, in %.

Batch request: growth inhibition per item, same order as input.
1. CNC[C@H](O)c1cccc(O)c1
2. Nc1nc(CC(=O)Nc2ccc(CCNC[C@H](O)c3ccccc3)cc2)cs1

Reply text:
1. 4.28
2. 1.04

###

Can you tell me growth inhibition for the items I'm about to list?
System: DIPGX7 (H3.3 K27M diffuse intrinsic pontine glioma line)
TEST NAME: growth inhibition (% activity, log2 RLU normalised to DMSO / staurosporine); higher = more growth inhibition
RECORDED CONDITIONS: 33 µM
Give bare numbers, in %.

Please review the following examples before continuing.
> print(dat)
                                   compound          parameter    result
1                                 [I-].[K+]  growth inhibition  -0.00688
2  OC(CCN1CCCC1)(c1ccccc1)C1CCCCC1 (configuration not stated)  growth inhibition     -1.45
3  O=C(O)COCCN1CCN(C(c2ccccc2)c2ccc(Cl)cc2)CC1 (configuration not stated)  growth inhibition      3.97
4             Nc1nnc(-c2cccc(Cl)c2Cl)c(N)n1  growth inhibition    -0.114

Batch request: growth inhibition per item, same order as input.
1. Cc1nnc(C(=O)NC(C)(C)c2nc(C(=O)NCc3ccc(F)cc3)c(O)c(=O)n2C)o1
2. O=C(O)CCCN1CCC(O[C@@H](c2ccc(Cl)cc2)c2ccccn2)CC1
3. CCN[C@H]1CN(CCCOC)S(=O)(=O)c2sc(S(N)(=O)=O)cc21
4. N#CC(c1ccc(Cl)cc1)c1c(Cl)cc(-n2ncc(=O)[nH]c2=O)cc1Cl (configuration not stated)

Reply text:
2.62
-0.839
1.84
-2.85

Batch request: growth inhibition per item, same order as input.
1. O=c1[nH]c(=O)n([C@H]2C[C@H](O)[C@@H](CO)O2)cc1F
2. CC(C)(C)NCC(O)c1ccc(O)c(CO)c1 (configuration not stated)

Reply text:
[12.8, -0.0436]

Batch request: growth inhibition per item, same order as input.
1. CCn1cc(C(=O)O)c(=O)c2ccc(C)nc21
2. COc1cc(/C=C/C(=O)N2CCN(CC(=O)N3CCCC3)CC2)cc(OC)c1OC

Reply text:
1: -0.91; 2: -0.108

###

Can you tell me growth inhibition for the items I'm about to list?
Tested on: HNSC
TEST NAME: growth inhibition (% activity, log2 RLU normalised to DMSO / staurosporine); higher = more growth inhibition
RECORDED CONDITIONS: 33 µM
Numbers only, in %.

Please review the following examples before continuing.
COMPOUND	RESULT
CCOC(=O)[C@H](CCc1ccccc1)N[C@H]1CCc2ccccc2N(CC(=O)O)C1=O	0.9
CN(C)CCC(c1ccc(Br)cc1)c1ccccn1 (stereo unspecified)	4.12
C[C@]12CC[C@H](O)CC1=CC[C@@H]1[C@@H]2CC[C@]2(C)C(c3cccnc3)=CC[C@@H]12	-6.23
CCC1=C(C)CN(C(=O)NCCc2ccc(S(=O)(=O)NC(=O)N[C@H]3CC[C@H](C)CC3)cc2)C1=O	4.42

Batch request: growth inhibition per item, same order as input.
1. CN(N=O)C(=O)N[C@H]1C(O)O[C@H](CO)[C@@H](O)[C@@H]1O (mixture of isomers)
2. CN(C)c1ccc(O)c2c1C[C@H]1C[C@H]3[C@H](N(C)C)C(=O)C(C(N)=O)=C(O)[C@@]3(O)C(=O)C1=C2O

Reply text:
1: 2.82; 2: 5.14
